The origin of these recorded values is patent US11306084B2.

target: Recombinant human integrin α5β1 (Homo sapiens, UniProt P05556+P08648); test: Solid Phase Receptor Assay (SPRA) for α5β1 function; conditions: plate-bound human fibronectin
Sequence (P08648 42-995 limits assumed): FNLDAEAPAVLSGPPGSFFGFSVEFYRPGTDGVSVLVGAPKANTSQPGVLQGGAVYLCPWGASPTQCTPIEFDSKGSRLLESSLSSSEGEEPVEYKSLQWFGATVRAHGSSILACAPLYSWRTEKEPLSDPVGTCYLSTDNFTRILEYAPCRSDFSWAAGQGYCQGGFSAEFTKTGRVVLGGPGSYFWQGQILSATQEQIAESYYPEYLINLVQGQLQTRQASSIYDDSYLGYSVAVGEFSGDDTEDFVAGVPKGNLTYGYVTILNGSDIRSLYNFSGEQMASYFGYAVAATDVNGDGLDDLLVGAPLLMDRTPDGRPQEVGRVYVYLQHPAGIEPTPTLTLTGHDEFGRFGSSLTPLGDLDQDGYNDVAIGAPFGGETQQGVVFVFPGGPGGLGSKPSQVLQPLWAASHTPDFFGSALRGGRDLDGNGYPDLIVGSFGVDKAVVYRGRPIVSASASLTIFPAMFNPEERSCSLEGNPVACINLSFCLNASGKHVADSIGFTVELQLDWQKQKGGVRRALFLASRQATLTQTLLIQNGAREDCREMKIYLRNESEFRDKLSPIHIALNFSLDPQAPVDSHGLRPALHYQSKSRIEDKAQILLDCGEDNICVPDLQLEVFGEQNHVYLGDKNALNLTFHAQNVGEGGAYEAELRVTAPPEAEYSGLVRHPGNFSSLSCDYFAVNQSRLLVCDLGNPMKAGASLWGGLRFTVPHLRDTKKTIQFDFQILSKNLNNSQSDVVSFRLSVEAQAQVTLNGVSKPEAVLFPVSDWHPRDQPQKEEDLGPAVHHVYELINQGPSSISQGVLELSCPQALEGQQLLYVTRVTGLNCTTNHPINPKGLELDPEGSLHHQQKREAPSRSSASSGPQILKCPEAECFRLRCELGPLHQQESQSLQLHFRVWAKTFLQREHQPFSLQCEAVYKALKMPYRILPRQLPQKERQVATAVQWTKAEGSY
Sequence (P05556 21-728 limits assumed): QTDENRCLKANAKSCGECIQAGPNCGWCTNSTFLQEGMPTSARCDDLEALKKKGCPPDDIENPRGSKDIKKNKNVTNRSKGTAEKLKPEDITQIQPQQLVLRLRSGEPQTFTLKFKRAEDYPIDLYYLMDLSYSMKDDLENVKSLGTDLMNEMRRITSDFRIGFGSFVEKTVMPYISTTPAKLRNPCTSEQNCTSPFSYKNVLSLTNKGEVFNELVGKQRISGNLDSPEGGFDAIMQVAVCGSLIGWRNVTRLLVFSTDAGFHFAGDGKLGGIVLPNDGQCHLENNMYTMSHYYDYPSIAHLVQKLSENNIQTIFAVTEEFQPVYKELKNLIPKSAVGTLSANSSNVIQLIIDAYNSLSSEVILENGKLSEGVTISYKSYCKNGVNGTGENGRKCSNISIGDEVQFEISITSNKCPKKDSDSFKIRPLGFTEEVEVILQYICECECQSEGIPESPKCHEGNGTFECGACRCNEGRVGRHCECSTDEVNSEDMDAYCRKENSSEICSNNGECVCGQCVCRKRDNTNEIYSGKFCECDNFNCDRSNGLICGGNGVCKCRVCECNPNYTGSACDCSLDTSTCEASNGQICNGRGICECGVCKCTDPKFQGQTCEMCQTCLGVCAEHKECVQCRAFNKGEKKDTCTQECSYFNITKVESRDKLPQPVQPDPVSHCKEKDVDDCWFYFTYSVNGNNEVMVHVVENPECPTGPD
Where a name gives a salt, the structure may show the parent alone.
metric-name: IC50 (nM)
Value expressed in nM; do not type the unit.

// query IC50 value for entry Cn1nc(CC(CC(=O)O)c2ccc3c(c2)OCCO3)cc1OCCc1ccc2c(n1)NCCC2 (centres unmarked) [Example 1] 229

Param item: COc1ccc(C(N)=O)cc1C(CC(=O)O)Cc1cc(OCCc2ccc3c(n2)NCCC3)n(C)n1 (centres unmarked) [Example 47, trifluoroacetate] 13

Param item: COc1c(C(CC(=O)O)Cc2cc(OCCc3ccc4c(n3)NCCC4)n(C)n2)cccc1C(C)(C)C (centres unmarked) [Example 33] 3900

Param item: Cn1nc(CC(CC(=O)O)c2cc(Br)cc(OC(F)(F)F)c2)cc1OCCc1ccc2c(n1)NCCC2 (centres unmarked) [Example 11] 150

====

target: Recombinant human integrin ανβ5 (Homo sapiens, UniProt P06756+P18084); assay: Solid Phase Receptor Assay (SPRA) for ανβ5 function; conditions: plate-bound human vitronectin; read-out: αvβ5 SPRA IC50
Sequence (P06756 31-992 limits assumed): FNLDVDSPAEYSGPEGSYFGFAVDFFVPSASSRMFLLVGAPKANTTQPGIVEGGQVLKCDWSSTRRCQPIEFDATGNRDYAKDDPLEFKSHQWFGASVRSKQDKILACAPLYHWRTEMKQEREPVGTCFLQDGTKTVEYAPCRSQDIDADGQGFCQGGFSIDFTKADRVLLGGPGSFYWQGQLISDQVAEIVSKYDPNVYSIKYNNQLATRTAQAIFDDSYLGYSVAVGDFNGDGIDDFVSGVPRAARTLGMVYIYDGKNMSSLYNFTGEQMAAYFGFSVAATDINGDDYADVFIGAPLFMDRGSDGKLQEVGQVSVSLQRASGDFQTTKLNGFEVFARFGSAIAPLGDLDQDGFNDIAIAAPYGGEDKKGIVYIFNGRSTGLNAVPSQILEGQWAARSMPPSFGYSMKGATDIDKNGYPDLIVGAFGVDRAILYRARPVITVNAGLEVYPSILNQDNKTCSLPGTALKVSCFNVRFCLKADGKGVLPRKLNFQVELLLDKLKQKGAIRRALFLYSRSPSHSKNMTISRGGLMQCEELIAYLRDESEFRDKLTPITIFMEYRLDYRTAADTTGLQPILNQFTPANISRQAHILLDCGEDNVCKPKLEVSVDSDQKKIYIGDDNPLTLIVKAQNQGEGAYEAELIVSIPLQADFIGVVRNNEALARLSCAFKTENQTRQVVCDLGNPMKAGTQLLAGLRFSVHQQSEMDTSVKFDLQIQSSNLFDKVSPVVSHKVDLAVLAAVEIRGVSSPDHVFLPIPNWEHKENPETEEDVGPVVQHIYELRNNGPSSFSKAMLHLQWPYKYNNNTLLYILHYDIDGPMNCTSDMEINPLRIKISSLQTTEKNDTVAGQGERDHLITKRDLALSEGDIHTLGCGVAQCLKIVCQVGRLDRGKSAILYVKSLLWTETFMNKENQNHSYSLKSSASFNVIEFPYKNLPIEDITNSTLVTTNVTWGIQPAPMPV
Sequence (P18084 24-719 limits assumed): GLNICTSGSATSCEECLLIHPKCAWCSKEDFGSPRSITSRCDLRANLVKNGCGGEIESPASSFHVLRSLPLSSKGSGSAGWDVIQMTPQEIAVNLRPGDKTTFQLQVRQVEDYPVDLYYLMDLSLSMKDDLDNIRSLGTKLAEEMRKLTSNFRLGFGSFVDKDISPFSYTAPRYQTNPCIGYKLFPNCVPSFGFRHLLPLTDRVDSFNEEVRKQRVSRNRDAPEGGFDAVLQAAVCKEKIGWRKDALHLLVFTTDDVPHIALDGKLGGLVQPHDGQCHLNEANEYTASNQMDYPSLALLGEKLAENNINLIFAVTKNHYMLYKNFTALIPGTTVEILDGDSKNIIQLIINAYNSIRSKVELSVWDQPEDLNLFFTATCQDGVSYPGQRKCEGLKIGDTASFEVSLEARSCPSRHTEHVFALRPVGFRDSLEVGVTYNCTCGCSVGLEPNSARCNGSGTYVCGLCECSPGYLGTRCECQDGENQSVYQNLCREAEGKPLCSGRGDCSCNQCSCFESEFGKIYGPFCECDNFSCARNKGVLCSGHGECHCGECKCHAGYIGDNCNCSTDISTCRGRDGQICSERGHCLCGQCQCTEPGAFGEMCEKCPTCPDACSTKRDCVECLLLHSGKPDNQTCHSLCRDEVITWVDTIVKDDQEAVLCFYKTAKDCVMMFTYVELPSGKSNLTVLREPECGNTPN
Counter-ions that a name gives are not always drawn.
For each record, check the reported IC50: if it is below 2 nM write Condition met, else write Condition not met.

Would you please look over these solved cases?
compound="CC(C)(C)c1cc(Br)cc(C(CC(=O)O)Cc2cc(OCCc3ccc4c(n3)NCCC4)n(CC(F)(F)F)n2)c1 (stereo not shown) [Example 41, Trifluoroacetate]" label_class="Condition not met"
compound="COCC1(c2cc(C(CC(=O)O)Cc3cc(OCCc4ccc5c(n4)NCCC5)n(C)n3)cc(C(F)(F)F)c2)CCOCC1 (stereo not shown) [Example 31]" label_class="Condition not met"
compound="COc1ccc(C(C)C)cc1C(CC(=O)O)Cc1cc(OCCc2ccc3c(n2)NCCC3)n(C)n1 (stereo not shown) [Example 39, Trifluoroacetate]" label_class="Condition not met"
compound="Cc1ccc(C(C)(C)C)cc1C(CC(=O)O)Cc1cc(OCCc2ccc3c(n2)NCCC3)n(C)n1 (stereo not shown) [Example 44, Trifluoroacetate]" label_class="Condition not met"
compound="Cn1nc(CC(CC(=O)O)c2cc(Cl)cc(C3(C(F)F)CC3)c2)cc1OCCc1ccc2c(n1)NCCC2 (stereo not shown) [Example 22]" label_class="Condition met"
compound="Cn1nc(CC(CC(=O)O)c2cc(Cl)cc(C(C)(C)C(F)(F)F)c2)cc1OCCc1ccc2c(n1)NCCC2 (stereo not shown) [Example 27]" label_class="Condition met"

Dear reviewer, please state whether CC(C)c1cc(Br)cc(C(CC(=O)O)Cc2cc(OCCc3ccc4c(n3)NCCC4)n(C)n2)c1 (stereo not shown) [Example 40, trifluoroacetate] has IC50 strictly beneath 2 nM. Condition met

Param item: Cn1nc(CC(CC(=O)O)c2ccc(Br)c(F)c2)cc1OCCc1ccc2c(n1)NCCC2 (stereo not shown) [Example 4] Condition met

Param item: Cn1nc(CC(CC(=O)O)c2cc(C(C)(C)C)ccc2Cl)cc1OCCc1ccc2c(n1)NCCC2 (stereo not shown) [Example 43, Trifluoroacetate] Condition not met

Param item: COc1ccc(Br)cc1C(CC(=O)O)Cc1cc(OCCc2ccc3c(n2)NCCC3)n(C)n1 (stereo not shown) [Example 14, trifluoroacetate] Condition not met

Param item: Cn1nc(CC(CC(=O)O)c2cc(C#N)cc(C(C)(C)C(F)(F)F)c2)cc1OCCc1ccc2c(n1)NCCC2 (stereo not shown) [Example 28, Trifluoroacetate] Condition met

Param item: COCC1(c2cc(F)cc(C(CC(=O)O)Cc3cc(OCCc4ccc5c(n4)NCCC5)n(C)n3)c2)CCOCC1 (stereo not shown) [Example 30] Condition met

Param item: Cn1nc(CC(CC(=O)O)c2cc(C#N)cc(C(C)(C)C)c2)cc1OCCc1ccc2c(n1)NCCC2 (stereo not shown) [Example 17] Condition met

Param item: Cn1nc(CC(CC(=O)O)c2cc(OC(F)(F)F)cc(C(C)(C)C)c2)cc1OCCc1ccc2c(n1)NCCC2 (stereo not shown) [Example 36] Condition met

Param item: COc1ccc(C(F)(F)F)cc1C(CC(=O)O)Cc1cc(OCCc2ccc3c(n2)NCCC3)n(C)n1 (stereo not shown) [Example 13, Trifluoroacetate] Condition not met

Param item: COc1ccc(C#N)cc1C(CC(=O)O)Cc1cc(OCCc2ccc3c(n2)NCCC3)n(C)n1 (stereo not shown) [Example 46, Trifluoroacetate] Condition met

Param item: Cn1nc(CC(CC(=O)O)c2cccc(Br)c2)cc1OCCc1ccc2c(n1)NCCC2 (stereo not shown) [Example 6] Condition met

Param item: Cn1nc(CC(CC(=O)O)c2cc(Br)cc(C(F)(F)F)c2)cc1OCCc1ccc2c(n1)NCCC2 (stereo not shown) [Example 10] Condition met

Param item: Cn1nc(CC(CC(=O)O)c2cc(C#N)cc(C3(C(F)F)CC3)c2)cc1OCCc1ccc2c(n1)NCCC2 (stereo not shown) [Example 20] Condition met

Param item: COc1cc(C(C)(C)C)ccc1C(CC(=O)O)Cc1cc(OCCc2ccc3c(n2)NCCC3)n(C)n1 (stereo not shown) [Example 34] Condition not met

Param item: COCC1(c2cc(Cl)cc(C(CC(=O)O)Cc3cc(OCCc4ccc5c(n4)NCCC5)n(C)n3)c2)CCOCC1 (stereo not shown) [Example 29] Condition met

Param item: COc1ccc([C@H](CC(=O)O)Cc2cc(OCCc3ccc4c(n3)NCCC4)n(C)n2)cc1F [Example 15] Condition met

====

target: Recombinant human integrin ανβ1 (Homo sapiens, UniProt P05556+P06756); assay: Solid Phase Receptor Assay (SPRA) for ανβ1 function; settings: plate-bound human fibronectin; read-out: αvβ1 SPRA IC50
Sequence (P05556 21-728 limits assumed, one chain of several): as the sequence (P05556 21-728 limits assumed) above
Structures can show the parent of a compound that is named as a salt.
For each record, check the reported IC50: if it is below 6 nM write label 1, else write label 0.

compound="Cn1nc(CC(CC(=O)O)c2ccc(F)c(Br)c2)cc1OCCc1ccc2c(n1)NCCC2 (stereo not shown)" label_class="label 0"
compound="Cn1nc(CC(CC(=O)O)c2cccc(C#N)c2)cc1OCCc1ccc2c(n1)NCCC2 (stereo not shown)" label_class="label 0"
compound="Cn1nc(CC(CC(=O)O)c2cc(Br)cc(C(C)(C)C)c2)cc1OCCc1ccc2c(n1)NCCC2 (stereo not shown)" label_class="label 1"
compound="Cn1nc(CC(CC(=O)O)c2cc(Br)cc(C(C)(C)C(F)(F)F)c2)cc1OCCc1ccc2c(n1)NCCC2 (stereo not shown)" label_class="label 0"

Dear reviewer, please state whether COc1ccc(C(F)(F)F)cc1C(CC(=O)O)Cc1cc(OCCc2ccc3c(n2)NCCC3)n(C)n1 (stereo not shown) [Example 13, Trifluoroacetate] has IC50 strictly beneath 6 nM. label 1

Param item: COc1ccc(C(C)(C)C)cc1C(CC(=O)O)Cc1cc(OCCc2ccc3c(n2)NCCC3)n(C)n1 (stereo not shown) label 1

Param item: CC(C)c1cc(Br)cc(C(CC(=O)O)Cc2cc(OCCc3ccc4c(n3)NCCC4)n(C)n2)c1 (stereo not shown) [Example 40, trifluoroacetate] label 0

====

compounds and their reported IC50
target: Recombinant human integrin ανβ3 (Homo sapiens, UniProt P05106+P06756); test: Solid Phase Receptor Assay (SPRA) for ανβ3 function; conditions: plate-bound human vitronectin; read-out: αvβ3 SPRA IC50
Sequence (P06756 31-992 limits assumed): as the sequence (P06756 31-992 limits assumed) above
Sequence (P05106 27-718 limits assumed): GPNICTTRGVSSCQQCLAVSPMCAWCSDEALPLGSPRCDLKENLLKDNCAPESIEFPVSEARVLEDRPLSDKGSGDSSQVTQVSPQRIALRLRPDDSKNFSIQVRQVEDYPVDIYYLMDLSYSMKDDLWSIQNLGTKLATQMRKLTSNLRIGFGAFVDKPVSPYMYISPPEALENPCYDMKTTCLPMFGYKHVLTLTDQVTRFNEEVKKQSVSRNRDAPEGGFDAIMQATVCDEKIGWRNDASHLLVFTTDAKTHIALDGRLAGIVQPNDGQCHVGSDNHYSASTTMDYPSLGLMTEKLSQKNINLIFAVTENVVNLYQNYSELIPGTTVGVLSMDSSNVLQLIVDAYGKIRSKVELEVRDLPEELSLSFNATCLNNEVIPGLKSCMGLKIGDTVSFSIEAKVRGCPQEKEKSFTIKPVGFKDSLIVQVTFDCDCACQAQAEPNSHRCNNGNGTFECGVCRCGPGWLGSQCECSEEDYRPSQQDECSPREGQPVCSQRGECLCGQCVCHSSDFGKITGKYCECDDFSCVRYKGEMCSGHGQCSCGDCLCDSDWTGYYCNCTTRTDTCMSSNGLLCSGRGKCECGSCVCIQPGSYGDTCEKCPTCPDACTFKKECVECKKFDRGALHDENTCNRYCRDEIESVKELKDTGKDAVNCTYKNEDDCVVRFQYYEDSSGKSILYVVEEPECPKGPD
Where a name gives a salt, the structure may show the parent alone.
Value expressed in nM; do not type the unit.

Take a look at these entries with their results.
compound="Cn1nc(CC(CC(=O)O)c2cc(F)cc(C(C)(C)C(F)(F)F)c2)cc1OCCc1ccc2c(n1)NCCC2 (stereo not shown)" target_of_assay="Recombinant human integrin ανβ3 (Homo sapiens, UniProt P05106+P06756)" endpoint_unit=nM result_value=4.5
compound="Cn1nc(CC(CC(=O)O)c2cc(Br)cc(C(C)(C)C)c2)cc1OCCc1ccc2c(n1)NCCC2 (stereo not shown)" target_of_assay="Recombinant human integrin ανβ3 (Homo sapiens, UniProt P05106+P06756)" endpoint_unit=nM result_value=7.7
compound="Cn1nc(CC(CC(=O)O)c2cc(C#N)cc(C(C)(C)C)c2)cc1OCCc1ccc2c(n1)NCCC2 (stereo not shown)" target_of_assay="Recombinant human integrin ανβ3 (Homo sapiens, UniProt P05106+P06756)" endpoint_unit=nM result_value=7.4
compound="Cn1nc(CC(CC(=O)O)c2cc(C(F)(F)F)cc(C(C)(C)C(F)(F)F)c2)cc1OCCc1ccc2c(n1)NCCC2 (stereo not shown)" target_of_assay="Recombinant human integrin ανβ3 (Homo sapiens, UniProt P05106+P06756)" endpoint_unit=nM result_value=4.6

// query IC50 value for entry Cn1nc(CC(CC(=O)O)c2ccc(F)c(Br)c2)cc1OCCc1ccc2c(n1)NCCC2 (stereo not shown) 6

Param item: COCC1(c2cc(C(CC(=O)O)Cc3cc(OCCc4ccc5c(n4)NCCC5)n(C)n3)cc(C(F)(F)F)c2)CCOCC1 (stereo not shown) 6.5

Param item: Cc1ccc(C(C)(C)C)cc1C(CC(=O)O)Cc1cc(OCCc2ccc3c(n2)NCCC3)n(C)n1 (stereo not shown) [Example 44, Trifluoroacetate] 270
